Listed below: IC50 values for each entry.
- TESTED_TARGET: human TLR9 (Homo sapiens)
- Sequence (Q9NR96 26-1032): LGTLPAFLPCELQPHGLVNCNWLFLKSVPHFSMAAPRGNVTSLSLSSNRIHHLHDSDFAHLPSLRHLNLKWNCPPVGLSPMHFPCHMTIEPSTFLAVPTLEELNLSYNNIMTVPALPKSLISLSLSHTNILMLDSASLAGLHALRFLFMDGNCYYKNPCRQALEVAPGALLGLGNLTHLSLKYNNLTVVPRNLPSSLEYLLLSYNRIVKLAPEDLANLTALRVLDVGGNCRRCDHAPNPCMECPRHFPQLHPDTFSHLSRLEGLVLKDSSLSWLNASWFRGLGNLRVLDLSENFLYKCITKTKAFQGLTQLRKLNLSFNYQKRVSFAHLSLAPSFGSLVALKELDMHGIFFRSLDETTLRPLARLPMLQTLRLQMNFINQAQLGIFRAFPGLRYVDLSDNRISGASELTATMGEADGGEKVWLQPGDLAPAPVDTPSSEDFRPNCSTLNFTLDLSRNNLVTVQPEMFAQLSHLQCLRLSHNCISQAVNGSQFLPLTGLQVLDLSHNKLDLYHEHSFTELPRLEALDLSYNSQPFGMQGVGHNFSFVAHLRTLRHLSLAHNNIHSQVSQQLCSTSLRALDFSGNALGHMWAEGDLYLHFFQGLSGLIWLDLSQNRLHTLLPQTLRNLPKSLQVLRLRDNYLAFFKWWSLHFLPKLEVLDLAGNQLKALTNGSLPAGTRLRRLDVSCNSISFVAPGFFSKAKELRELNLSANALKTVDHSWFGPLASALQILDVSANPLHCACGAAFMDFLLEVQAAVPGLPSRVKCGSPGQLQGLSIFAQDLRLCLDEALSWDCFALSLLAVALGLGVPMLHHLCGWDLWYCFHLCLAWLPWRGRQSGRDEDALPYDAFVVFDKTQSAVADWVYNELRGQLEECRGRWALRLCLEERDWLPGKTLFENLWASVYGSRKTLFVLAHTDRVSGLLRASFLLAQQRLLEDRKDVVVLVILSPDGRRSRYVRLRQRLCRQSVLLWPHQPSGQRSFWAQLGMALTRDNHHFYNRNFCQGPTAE
- PROCEDURE_TEXT: TLR9 inhibition reporter assay (HEK-Blue SEAP)
- EXPERIMENTAL_CONDITIONS: HEK-Blue cells overexpressing human TLR9, ODN2006 5 nM, 22 hour incubation
OBSERVED_PROPERTY: IC50 (µM)

# MOLECULE, OBSERVED_PROPERTY, MEASURE_UNIT, READOUT_NUMBER
data = [
    ("COc1cc(-c2cc3[nH]c(=O)n(C4CCC(N5CCC(F)(F)C5)CC4)c3cc2C(C)C)cn2ncnc12 (single isomer, unassigned) [Example 294]", "IC50", "µM", 35.2),
    ("COc1cc(-c2cc3[nH]c(=O)n([C@H]4CC[C@@H](N(C)C)CC4)c3cc2C(C)C)cn2ncnc12", "IC50", "µM", 11.7),
    ("CCN1CCC(n2c(=O)[nH]c3cc(-c4cc(OC)c5ncnn5c4)c(C)cc32)CC1", "IC50", "µM", 0.638),
    ("COc1cc(-c2cc3[nH]c(=O)n(C4CCN(CC5CCOCC5)CC4)c3cc2C(C)C)cn2ncnc12", "IC50", "µM", 7.25),
    ("COc1cc(-c2cc3[nH]c(=O)n([C@@H]4CCCN(C)C4)c3cc2C(C)C)cn2ncnc12", "IC50", "µM", 14.9),
    ("COc1cc(-c2cc3[nH]c(=O)n(C4CCN(CC5CCOC5)CC4)c3cc2C(C)C)cn2ncnc12 (stereo not shown)", "IC50", "µM", 14.3),
    ("CCCN(CCC)[C@H]1CC[C@@H](n2c(=O)[nH]c3cc(-c4cc(OC)c5ncnn5c4)c(CC)cc32)CC1", "IC50", "µM", 15.2),
]

---

- TESTED_TARGET: human TLR7 (Homo sapiens, UniProt Q9NYK1)
- Sequence (Q9NYK1 27-1049): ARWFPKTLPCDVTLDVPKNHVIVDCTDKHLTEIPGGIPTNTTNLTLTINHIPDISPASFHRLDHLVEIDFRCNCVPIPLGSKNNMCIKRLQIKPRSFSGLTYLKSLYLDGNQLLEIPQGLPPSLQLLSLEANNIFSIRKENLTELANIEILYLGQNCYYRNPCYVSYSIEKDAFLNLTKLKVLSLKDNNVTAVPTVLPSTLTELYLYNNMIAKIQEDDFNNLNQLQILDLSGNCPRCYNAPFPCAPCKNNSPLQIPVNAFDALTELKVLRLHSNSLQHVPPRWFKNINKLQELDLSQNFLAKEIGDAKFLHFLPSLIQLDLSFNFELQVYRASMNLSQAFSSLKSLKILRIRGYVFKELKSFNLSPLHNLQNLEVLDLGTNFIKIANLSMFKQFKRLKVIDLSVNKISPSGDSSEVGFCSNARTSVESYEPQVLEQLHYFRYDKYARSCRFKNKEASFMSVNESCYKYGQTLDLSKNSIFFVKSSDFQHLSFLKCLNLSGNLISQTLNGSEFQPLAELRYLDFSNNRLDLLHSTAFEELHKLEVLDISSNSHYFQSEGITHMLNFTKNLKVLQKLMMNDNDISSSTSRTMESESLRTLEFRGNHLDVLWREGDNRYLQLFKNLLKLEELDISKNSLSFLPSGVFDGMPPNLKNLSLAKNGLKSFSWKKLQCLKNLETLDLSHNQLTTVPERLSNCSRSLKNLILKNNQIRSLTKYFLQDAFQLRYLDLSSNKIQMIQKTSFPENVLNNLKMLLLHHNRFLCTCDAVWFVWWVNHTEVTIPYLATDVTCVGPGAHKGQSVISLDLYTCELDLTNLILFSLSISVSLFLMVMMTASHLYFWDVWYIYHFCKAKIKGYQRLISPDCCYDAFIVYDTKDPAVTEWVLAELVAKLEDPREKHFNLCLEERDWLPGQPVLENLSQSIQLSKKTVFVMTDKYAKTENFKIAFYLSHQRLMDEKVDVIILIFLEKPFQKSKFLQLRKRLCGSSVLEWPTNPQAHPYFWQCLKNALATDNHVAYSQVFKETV
- PROCEDURE_TEXT: TLR7 inhibition reporter assay (HEK-Blue SEAP)
- EXPERIMENTAL_CONDITIONS: HEK-Blue cells overexpressing human TLR7, gardiquimod 7.5 μM, 22 hour incubation

# STRUCTURE_STRING, MEASURE_UNIT, CMP, IC50
rows = [
    ("COc1cc(-c2cc3[nH]c(=O)n([C@H]4CC[C@H](N(CC5CC5)CC5CC5)CC4)c3cc2C(C)C)cn2ncnc12", "nM", "=", 1.3),
    ("Cc1cc(-c2ccc3c(c2)[nH]c(=O)n3C2CCN(C(=O)CN(C)C)CC2)cn2ncnc12", "nM", ">", 3130),
    ("CCC(CC)CN[C@H]1CC[C@@H](n2c(=O)[nH]c3cc(-c4cn5ncnc5c(C)c4C)c(C(C)C)cc32)CC1", "nM", "=", 4.92),
    ("Cc1cc(-c2ccc3c(c2)[nH]c(=O)n3C2CCNCC2)cn2ncnc12", "nM", "=", 1160),
    ("COc1cc(-c2ccc3c(c2)[nH]c(=O)n3C2CCN(C3COC3)CC2)cn2ncnc12", "nM", ">", 3130),
    ("CCc1cc2c(cc1-c1cc(OC)c3ncnn3c1)[nH]c(=O)n2[C@H]1CC[C@@H](NC(C)C)CC1", "nM", "=", 3.08),
    ("COc1cc(-c2ccc3c(c2)[nH]c(=O)n3C2CCN(C(C)C)CC2)cn2ncnc12", "nM", "=", 1530),
]

---

Listed below: IC50 values for each entry.
- TESTED_TARGET: human TLR7 (Homo sapiens)
- PROCEDURE_TEXT: TLR7 inhibition reporter assay (HEK-Blue SEAP)
- EXPERIMENTAL_CONDITIONS: HEK-Blue cells overexpressing human TLR7, gardiquimod 7.5 μM, 22 hour incubation
- Experimental: TLR7/8/9 Inhibition Reporter Assays Briefly, cells are seeded into Greiner 384 well plates (15000 cells per well for TLR7, 20,000 for TLR8 and 25,000 for TLR9) and then treated with test compounds in DMSO to yield a final dose response concentration range of 0.05 nM-50 μM. […] The percent inhibition is determined as the % reduction in the HEK-Blue signal present in wells treated with agonist plus DMSO alone compared to wells treated with a known inhibitor.

# COMPOUND, IC50
records = [
    ("COc1cc(-c2cc3[nH]c(=O)n(C4CCN(CC5CC5)CC4)c3cc2C(C)C)cn2ncnc12", "7.28 nM"),
    ("COc1cc(-c2cc3[nH]c(=O)n(C4CCC(N5CCCC5)CC4)c3cc2C(C)C)cn2ncnc12 (stereo not shown) [Example 231]", "1.68 nM"),
    ("Cc1c(-c2cc3[nH]c(=O)n(C4CCC(N5CCCOCC5)CC4)c3cc2C(C)C)cn2ncnc2c1C (stereo not shown) [Example 272]", "5.37 nM"),
    ("COc1cc(-c2cc3[nH]c(=O)n([C@@H]4CCCN(CC(C)(C)C)C4)c3cc2C(F)(F)F)cn2ncnc12", "44.1 nM"),
    ("Cc1cc(-c2ccc3c(c2)[nH]c(=O)n3C2CCN(CC(=O)N(C)C)CC2)cn2ncnc12", "2160 nM"),
    ("COc1cc(-c2cc3[nH]c(=O)n(C4CCC(N5CCSCC5)CC4)c3cc2C(C)C)cn2ncnc12 (stereo not shown) [Example 251]", "3.54 nM"),
    ("Cc1c(-c2cc3[nH]c(=O)n([C@@H]4CCCN(C5COC5)C4)c3cc2C(C)C)cn2ncnc2c1C", "182 nM"),
]
